The reader will find reported inhibition at 10 µM values listed item by item below.
Tested on: brain CCK receptor (Mus musculus, UniProt P56481)
Construct: from tissue; host or cells: forebrain membranes of male CF-1 mice
Sequence (P56481 whole entry): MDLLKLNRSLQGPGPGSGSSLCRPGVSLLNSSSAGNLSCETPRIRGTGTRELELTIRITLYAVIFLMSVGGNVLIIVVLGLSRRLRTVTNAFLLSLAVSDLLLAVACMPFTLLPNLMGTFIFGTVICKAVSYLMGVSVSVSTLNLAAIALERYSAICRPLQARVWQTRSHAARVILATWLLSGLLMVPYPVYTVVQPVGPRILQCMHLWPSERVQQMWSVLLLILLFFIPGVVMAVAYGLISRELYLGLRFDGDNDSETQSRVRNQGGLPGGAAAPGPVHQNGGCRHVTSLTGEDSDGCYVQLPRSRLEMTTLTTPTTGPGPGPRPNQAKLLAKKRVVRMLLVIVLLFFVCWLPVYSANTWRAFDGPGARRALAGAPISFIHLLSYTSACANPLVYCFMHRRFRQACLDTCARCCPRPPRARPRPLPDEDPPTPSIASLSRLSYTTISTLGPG
Protocol text: CCK receptor binding, mouse brain membranes (125I-CCK-8 sulfate)
Run conditions: at 10 μM; read-out: Brain Percent Inhibition
Measured endpoint: inhibition at 10 µM (%)

| Compound | Measured endpoint | Result number |
| --- | --- | --- |
| O=C1NN(C(=O)NC2CCCCC2)[C@@H](c2ccccc2)[C@@H]1c1ccccc1 (relative stereo) | inhibition at 10 µM | 55 |
| O=C(Nc1ccc(Cl)c(C(F)(F)F)c1)N1N[C@@H](c2ccccc2)[C@H](c2ccccc2)C1=O (relative stereo) | inhibition at 10 µM | 34 |
| O=C1NN(C(=S)Nc2ccccc2)[C@H](c2ccccc2)[C@H]1c1ccccc1 (relative stereo) | inhibition at 10 µM | 34 |
| Nc1ccc(NC(=O)N2NC(=O)[C@@H](c3ccccc3)[C@@H]2c2ccccc2)cc1 (relative stereo) | inhibition at 10 µM | 57 |
| O=C1NN(C(=O)NCc2ccccc2Cl)[C@@H](c2ccccc2)[C@@H]1c1ccccc1 (relative stereo) | inhibition at 10 µM | 74 |
| O=C1NN(c2nc3ccc(Br)cc3s2)[C@@H](c2ccccc2)[C@@H]1c1ccccc1 (relative stereo) | inhibition at 10 µM | 78 |
| COC1=NN(C(=O)Nc2ccc(C(F)(F)F)cc2)[C@@H](c2ccccc2)[C@@H]1c1ccccc1 (relative stereo) | inhibition at 10 µM | 67 |

* * *

Tested on: brain CCK receptor (Mus musculus, UniProt P56481)
Construct: from tissue; host or cells: forebrain membranes of male CF-1 mice
Protocol text: CCK receptor binding, mouse brain membranes (125I-CCK-8 sulfate)
Run conditions: at 10 μM; read-out: Brain Percent Inhibition
Decision: inhibition at 10 µM compared against 50%; not below it gives TRUE, below it gives FALSE.

| Molecule | Tested on | Assigned category |
| --- | --- | --- |
| O=C1NN(C(=O)Nc2ccc(Br)cc2)C(Cc2ccccc2)C1c1ccccc1 (stereo not shown) | brain CCK receptor (Mus musculus, UniProt P56481) | TRUE |
| O=C1NN(C(=O)NCc2ccccc2)[C@@H](c2ccccc2)[C@@H]1c1ccccc1 (relative stereo) | brain CCK receptor (Mus musculus, UniProt P56481) | FALSE |
| CN(Cc1ccccc1)C(=O)N1NC(=O)[C@@H](c2ccccc2)[C@@H]1c1ccccc1 (relative stereo) | brain CCK receptor (Mus musculus, UniProt P56481) | FALSE |
| O=C1NN(C(=O)c2ccc(C(F)(F)F)cc2)[C@H](c2ccccc2)[C@H]1c1ccccc1 (relative stereo) | brain CCK receptor (Mus musculus, UniProt P56481) | FALSE |
| CN1C(=O)[C@H](c2ccccc2)[C@@H](c2ccccc2)N1C(=O)Nc1ccc(C(F)(F)F)cc1 (relative stereo) | brain CCK receptor (Mus musculus, UniProt P56481) | FALSE |
| O=C1NN(C(=O)Nc2ccccc2)[C@@H](c2ccccc2)[C@@H]1c1ccccc1 (racemic) | brain CCK receptor (Mus musculus, UniProt P56481) | TRUE |
| O=C1NN(c2nc3ccccc3s2)[C@@H](c2ccccc2)[C@@H]1c1ccccc1 (relative stereo) | brain CCK receptor (Mus musculus, UniProt P56481) | TRUE |
